Biological target: T1, GST-human NOGO-A56 (human, UniProt Q9NQC3 586-785)
T1 construct: GST-tagged fusion expressed in E. coli BL21 from pGEX-6P1; also called hNOGO; human NOGO 5+6 GST; not shown: Glutathione S-transferase tag encoded by vector pGEX-6P1 (N-terminal, with vector linker)
T1 sequence: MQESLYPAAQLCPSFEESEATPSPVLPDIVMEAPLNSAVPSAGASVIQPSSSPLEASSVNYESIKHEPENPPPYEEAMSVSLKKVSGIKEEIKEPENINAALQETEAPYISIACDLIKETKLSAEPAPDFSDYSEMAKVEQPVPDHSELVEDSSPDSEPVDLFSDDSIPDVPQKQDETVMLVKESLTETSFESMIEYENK
Experiment: SPR (Biacore), GST-human NOGO-A56 immobilised, purified antibody as analyte; single experiment
observed.property: Kd (nM)
Supply the numeric figure in nM, leaving out any unit text.

| binder | Kd (nM) |
| --- | --- |
| H6L13 (antibody, human IgG1, kappa, V domains shown) VH: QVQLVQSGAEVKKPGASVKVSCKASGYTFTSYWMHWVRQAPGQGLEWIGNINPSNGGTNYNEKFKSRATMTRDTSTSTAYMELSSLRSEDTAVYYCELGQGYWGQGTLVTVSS VL: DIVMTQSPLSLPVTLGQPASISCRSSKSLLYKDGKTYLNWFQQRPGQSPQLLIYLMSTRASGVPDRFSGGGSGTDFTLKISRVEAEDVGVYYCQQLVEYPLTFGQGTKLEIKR | 8.1 |

Quick note, Kd for H1L11 (antibody, human IgG1, kappa, V domains shown) VH: QVQLVQSGAEVKKPGASVKVSCKASGYTFTSYWMHWVRQAPGQGLEWMGNINPSNGGTNYNEKFKSRVTMTRDTSTSTVYMELSSLRSEDTAVYYCELGQGYWGQGTLVTVSS VL: DIVITQSPLSLPVTLGQPASISCRSSKSLLYKDGKTYLNWFQQRPGQSPQLLIYLMSTRASGVPDRFSGGGSGTDFTLKISRVEAEDVGVYYCQQLVEYPLTFGQGTKLEIKR landed at 18.4

Quick note, Kd for HcLc (antibody, human IgG1, kappa, V domains shown, also called chimera of 2A10; 2A10 chimeric antibody) VH: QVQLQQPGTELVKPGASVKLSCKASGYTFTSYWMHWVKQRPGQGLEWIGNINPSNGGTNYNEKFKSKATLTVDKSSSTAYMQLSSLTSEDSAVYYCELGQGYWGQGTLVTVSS VL: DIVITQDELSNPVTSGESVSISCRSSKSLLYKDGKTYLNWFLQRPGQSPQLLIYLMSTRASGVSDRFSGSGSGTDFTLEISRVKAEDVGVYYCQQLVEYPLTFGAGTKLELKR landed at 1.59
